# subject-of-test: T1, human MSLN-hFc protein (Acro, Cat. No. MSN-H5253) (human, UniProt Q13421 296-580)
# T1 construct: the method names the coated protein as human MSLN-hFc (Acro); also called human MSLN full-length protein
# measurement-description: ELISA on coated antigen, antibody 0.01 nM
Consider the following binders; for each one, report its OD450.
Field: numeric (OD450). Do not append units.

Incoming: What value of measured OD450 is listed for F7.33.24-H10 (scFv, not shown: small tags and cut ends, also called S009-F7.33.24 humanized antibody VH2a + VL1) scFv: EVQLVQSGAEVKKPGASVKVSCKASGYTFTSYWMHWVRQAPGQGLEWMGNVNPSNAGSNYNEKFKNRVTITVDKSASTAYMELSSLRSEDTAVYYCAPHYIGSRPGFAYWGQGTLVTVSSGGGGSGGGGSGGGGSDIVMTQSPDSLAVSLGERATINCKASQNVGTNIAWYQQKPGQSPKALIYSASYRYSGVPDRFSGSGSGTDFTLTISSLQAEDVAVYYCQQYNSYPLTFGGGTKVEIK ?
Outgoing: 0.05

Incoming: # query: OD450 of entry F7.33.24-H9 (scFv, not shown: small tags and cut ends, also called S009-F7.33.24 humanized antibody VH2 + VL3) scFv: EVQLVQSGAEVKKPGASVKVSCKASGYTFTSYWMHWVRQAPGQGLEWMGNVNPSNGGSNYNEKFKNRVTITVDKSASTAYMELSSLRSEDTAVYYCAPHYIGSRPGFAYWGQGTLVTVSSGGGGSGGGGSGGGGSDIVMTQTPLSLSVTPGQPASISCKASQNVGTNIAWYQQKPGQSPQALIYSASYRYSGVPDRFSGSGSGTDFTLKISRVEAEDVGVYYCQQYNSYPLTFGGGTKVEIK
Outgoing: 0.05

Incoming: Fill blank: measured OD450 of the binder F7.33.24-H3 (scFv, not shown: small tags and cut ends, also called S009-F7.33.24 humanized antibody VH1 + VL3) scFv: EVQLVQSGAEVKKPGASVKVSCKASGYTFTSYWMHWVRQAPGQRLEWMGNVNPSNGGSNYNEKFKNRVTITVDKSASTAYMELSSLRSEDTAVYYCAPHYIGSRPGFAYWGQGTLVTVSSGGGGSGGGGSGGGGSDIVMTQTPLSLSVTPGQPASISCKASQNVGTNIAWYQQKPGQSPQALIYSASYRYSGVPDRFSGSGSGTDFTLKISRVEAEDVGVYYCQQYNSYPLTFGGGTKVEIK is ____.
Outgoing: 0.06

Incoming: For F7.33.24-H6 (scFv, not shown: small tags and cut ends, also called S009-F7.33.24 humanized antibody VH1a + VL3) scFv: EVQLVQSGAEVKKPGASVKVSCKASGYTFTSYWMHWVRQAPGQRLEWMGNVNPSSGGSNYNEKFKNRVTITVDKSASTAYMELSSLRSEDTAVYYCAPHYIGSRPGFAYWGQGTLVTVSSGGGGSGGGGSGGGGSDIVMTQTPLSLSVTPGQPASISCKASQNVGTNIAWYQQKPGQSPQALIYSASYRYSGVPDRFSGSGSGTDFTLKISRVEAEDVGVYYCQQYNSYPLTFGGGTKVEIK , what is its reported OD450?
Outgoing: 0.05

Incoming: Fill in: OD450 of F7.33.24-H1 (scFv, not shown: small tags and cut ends, also called S009-F7.33.24 humanized antibody VH1 + VL1) scFv: EVQLVQSGAEVKKPGASVKVSCKASGYTFTSYWMHWVRQAPGQRLEWMGNVNPSNGGSNYNEKFKNRVTITVDKSASTAYMELSSLRSEDTAVYYCAPHYIGSRPGFAYWGQGTLVTVSSGGGGSGGGGSGGGGSDIVMTQSPDSLAVSLGERATINCKASQNVGTNIAWYQQKPGQSPKALIYSASYRYSGVPDRFSGSGSGTDFTLTISSLQAEDVAVYYCQQYNSYPLTFGGGTKVEIK is ___
Outgoing: 0.05

Incoming: Endpoint output: OD450 of F7.33.24-H5 (scFv, not shown: small tags and cut ends, also called S009-F7.33.24 humanized antibody VH1a + VL2) scFv: EVQLVQSGAEVKKPGASVKVSCKASGYTFTSYWMHWVRQAPGQRLEWMGNVNPSSGGSNYNEKFKNRVTITVDKSASTAYMELSSLRSEDTAVYYCAPHYIGSRPGFAYWGQGTLVTVSSGGGGSGGGGSGGGGSDIVMTQTPLSLSVTPGQPASISCKASQNVGTNIAWYLQKPGQSPQALIYSASYRYSGVPDRFSGSGSGTDFTLKISRVEAEDVGVYYCQQYNSYPLTFGGGTKVEIK . Value?
Outgoing: 0.04

Incoming: // query OD450 value for entry F7.33.24-H2 (scFv, not shown: small tags and cut ends, also called S009-F7.33.24 humanized antibody VH1 + VL2) scFv: EVQLVQSGAEVKKPGASVKVSCKASGYTFTSYWMHWVRQAPGQRLEWMGNVNPSNGGSNYNEKFKNRVTITVDKSASTAYMELSSLRSEDTAVYYCAPHYIGSRPGFAYWGQGTLVTVSSGGGGSGGGGSGGGGSDIVMTQTPLSLSVTPGQPASISCKASQNVGTNIAWYLQKPGQSPQALIYSASYRYSGVPDRFSGSGSGTDFTLKISRVEAEDVGVYYCQQYNSYPLTFGGGTKVEIK
Outgoing: 0.05

Incoming: Find the recorded OD450 belonging to F7.33.24 (scFv, not shown: small tags and cut ends, also called S009-F7.33.24 (parental variable regions, in the humanized-antibody ELISA)) scFv: QVQLQQPGTELVKPGASVKLSCKASGYTFTSYWMHWVKQRPGQGLEWIGNVNPSNGGSNYNEKFKNKATLTVDKSSSTADMQLNSLTSEDSAVYYCAPHYIGSRPGFAYWGQGTLVTVSGGGGGSGGGGSGGGGSDIVMTQSQKFMSTSVGDRVSVTCKASQNVGTNIAWYQQKPGQSPKALIYSASYRYSGVPDRFTGSGSGTDFTLTITNVQSEDLAEYFCQQYNSYPLTFGGGTKVEIK and report it.
Outgoing: 0.21

Incoming: Form field: reported OD450 of F7.33.24-H7 (scFv, not shown: small tags and cut ends, also called S009-F7.33.24 humanized antibody VH2 + VL1) scFv: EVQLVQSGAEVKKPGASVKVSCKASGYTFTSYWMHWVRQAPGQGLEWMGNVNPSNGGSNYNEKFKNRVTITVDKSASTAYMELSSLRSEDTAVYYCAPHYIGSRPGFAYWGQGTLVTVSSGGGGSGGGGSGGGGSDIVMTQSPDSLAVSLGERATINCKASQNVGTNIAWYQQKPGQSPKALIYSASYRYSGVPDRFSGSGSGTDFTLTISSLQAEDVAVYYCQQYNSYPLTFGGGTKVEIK
Outgoing: 0.05

Incoming: Form field: reported OD450 of F7.33.24-H11 (scFv, not shown: small tags and cut ends, also called S009-F7.33.24 humanized antibody VH2a + VL2) scFv: EVQLVQSGAEVKKPGASVKVSCKASGYTFTSYWMHWVRQAPGQGLEWMGNVNPSNAGSNYNEKFKNRVTITVDKSASTAYMELSSLRSEDTAVYYCAPHYIGSRPGFAYWGQGTLVTVSSGGGGSGGGGSGGGGSDIVMTQTPLSLSVTPGQPASISCKASQNVGTNIAWYLQKPGQSPQALIYSASYRYSGVPDRFSGSGSGTDFTLKISRVEAEDVGVYYCQQYNSYPLTFGGGTKVEIK
Outgoing: 0.04
